test system: c-Src; test: phosphorylation enrichment, bacterial display (enrichment ratio); higher = better substrate or ligand; peptides without Tyr show the background
Here the recorded phosphorylation enrichment is given for each entry.
Enter the number alone.

In the examples that follow, each entry is paired with its recorded phosphorylation enrichment.
RSACTYLAPHL [PLK3_Y615_S618P]
2.74
PEADKYRLPFA [FGG_Y300_T303P_YF]
0.614
YSQNICIQNRN [PKP2_Y631_Y631C]
0.432
YQASYYRRGDR [LTK_Y677_R673Q]
0.527
LIDGYYRLTED [JAK2_Y373_A377E]
0.899
NLSVRYDSSLK [ABCC8_Y1353]
0.492

Return reported phosphorylation enrichment. Input sequence: MKVPVYETPAG [PGM5_Y358]
5.2

---

biological target: EPHB2 (UniProt P29323); experiment: phosphorylation enrichment, bacterial display (enrichment ratio); higher = better substrate or ligand; peptides without Tyr show the background
Sequence (P29323 whole entry, looked up): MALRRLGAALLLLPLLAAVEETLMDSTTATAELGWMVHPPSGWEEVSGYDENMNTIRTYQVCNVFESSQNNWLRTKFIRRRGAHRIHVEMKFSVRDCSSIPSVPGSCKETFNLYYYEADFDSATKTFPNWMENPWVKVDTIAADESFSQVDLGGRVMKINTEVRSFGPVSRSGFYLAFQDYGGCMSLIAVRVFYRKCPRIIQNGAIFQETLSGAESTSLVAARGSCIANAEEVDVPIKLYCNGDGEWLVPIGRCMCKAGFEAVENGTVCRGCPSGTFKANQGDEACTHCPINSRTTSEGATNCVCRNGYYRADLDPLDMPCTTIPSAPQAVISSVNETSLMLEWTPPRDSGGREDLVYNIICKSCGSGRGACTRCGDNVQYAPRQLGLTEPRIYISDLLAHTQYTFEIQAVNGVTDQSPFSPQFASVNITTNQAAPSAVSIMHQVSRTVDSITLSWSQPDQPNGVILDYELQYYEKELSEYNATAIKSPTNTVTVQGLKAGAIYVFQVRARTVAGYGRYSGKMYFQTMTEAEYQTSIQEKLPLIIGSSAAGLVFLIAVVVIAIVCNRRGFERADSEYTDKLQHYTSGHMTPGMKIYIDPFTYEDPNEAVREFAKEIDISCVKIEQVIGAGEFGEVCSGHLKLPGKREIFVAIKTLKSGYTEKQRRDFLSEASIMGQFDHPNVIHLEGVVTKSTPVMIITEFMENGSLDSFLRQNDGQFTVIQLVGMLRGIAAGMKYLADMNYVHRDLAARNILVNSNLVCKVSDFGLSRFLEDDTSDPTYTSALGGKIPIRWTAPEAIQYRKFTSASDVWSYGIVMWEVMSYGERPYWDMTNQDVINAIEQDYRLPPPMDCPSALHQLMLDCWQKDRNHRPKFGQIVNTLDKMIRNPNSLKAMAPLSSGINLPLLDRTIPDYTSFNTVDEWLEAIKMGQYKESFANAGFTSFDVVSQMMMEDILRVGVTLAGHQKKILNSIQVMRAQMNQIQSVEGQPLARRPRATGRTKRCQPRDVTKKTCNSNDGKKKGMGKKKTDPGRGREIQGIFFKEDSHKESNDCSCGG
Category | rule: reported phosphorylation enrichment within range, see low bracket = under 0.5, middle bracket = from 0.5 up to 0.7, high bracket = 0.7 and over

# example entries with known answers
TGEKLYQRKEF [ZNF283_Y627]
low bracket
LIDGYYRLTED [JAK2_Y373_A377E]
high bracket
FIATQYSLCPR [LBR_Y166_R169C_YF]
middle bracket

GET /class?item= PVGVLYKVKVF [PTS_Y128_YF]
high bracket

GET /class?item= INSLKYAYNVS [EIF2B5_Y583_I587V]
low bracket

GET /class?item= DLDATYRPMYS [JUP_Y701_M697L]
low bracket

GET /class?item= SGRSGYCLGTR [SCO1_Y60_P58S]
middle bracket

GET /class?item= SKDQIYPMKLK [RANBP17_Y823]
low bracket

GET /class?item= VASSLYDILAR [GLB1_Y294]
high bracket

GET /class?item= GGPAEYLRRAS [PKLR_Y38_G37E]
low bracket

GET /class?item= QNTGGYYDLYG [PTPN11_Y62_D61G]
high bracket

---

biological target: EPHB2 (UniProt P29323); assay: phosphorylation enrichment, bacterial display (enrichment ratio); higher = better substrate or ligand; peptides without Tyr show the background
Here the recorded phosphorylation enrichment is given for each entry.
Enter the number alone.

SVTCTYSPVLN [TP53_Y126_A129V]
0.692

Return reported phosphorylation enrichment. Input sequence: RRNTFYASIAK [ACADM_Y353_YF]
0.455

Return reported phosphorylation enrichment. Input sequence: ATRKAYGQALA [TKT_Y321]
0.348

Return reported phosphorylation enrichment. Input sequence: LVRPPYSFLAL [FOXI1_Y126_S129L_YF]
0.523

Return reported phosphorylation enrichment. Input sequence: ASLEAYCKHKY [RXRA_Y403]
0.501

Return reported phosphorylation enrichment. Input sequence: PFTRNYYVQAV [CYBA_Y87_R90Q]
0.706

Return reported phosphorylation enrichment. Input sequence: WQQQSYLDSGI [CTNNB1_Y30]
0.433

---

molecular target: EPHB2 (UniProt P29323); experiment: phosphorylation enrichment, bacterial display (enrichment ratio); higher = better substrate or ligand; peptides without Tyr show the background
Category | rule: reported phosphorylation enrichment within range, see low-valued (below 0.5), mid-valued (0.5 to below 0.6), high-valued (0.6 or more)

# example entries with known answers
ATQDDYVLEVR [PTPRZ1_Y2179]
high-valued
LPKEQYLCTKE [AFG3L2_Y614_Y616C]
low-valued
KELSNYKHLTL [SLIT2_Y776]
low-valued
TVLEPYTDPYY [ZC3H18_Y367_A368T]
mid-valued
VLALWYFFLTN [ZDHHC23_Y127_H132N_YF]
high-valued

GET /class?item= RLAKTYETTLK [ALB_Y377_E382K]
high-valued

GET /class?item= EHLNRYISDTF [TTLL10_Y446]
low-valued

GET /class?item= GKGGSYSQAAC [HLA-B_Y344]
low-valued

GET /class?item= FPCSVYMPDEW [INSR_Y1011_V1012M]
high-valued

GET /class?item= DSDTDYGSGFP [RNASEH2A_Y206_L202S_YF]
mid-valued

GET /class?item= KAESWYQTKFE [KRT75_Y342_E337K_YF]
low-valued

---

Here the recorded phosphorylation enrichment is given for each entry.
molecular target: EPHB1 (UniProt P54762); assay: phosphorylation enrichment, bacterial display (enrichment ratio); higher = better substrate or ligand; peptides without Tyr show the background
Sequence (P54762 whole entry, looked up): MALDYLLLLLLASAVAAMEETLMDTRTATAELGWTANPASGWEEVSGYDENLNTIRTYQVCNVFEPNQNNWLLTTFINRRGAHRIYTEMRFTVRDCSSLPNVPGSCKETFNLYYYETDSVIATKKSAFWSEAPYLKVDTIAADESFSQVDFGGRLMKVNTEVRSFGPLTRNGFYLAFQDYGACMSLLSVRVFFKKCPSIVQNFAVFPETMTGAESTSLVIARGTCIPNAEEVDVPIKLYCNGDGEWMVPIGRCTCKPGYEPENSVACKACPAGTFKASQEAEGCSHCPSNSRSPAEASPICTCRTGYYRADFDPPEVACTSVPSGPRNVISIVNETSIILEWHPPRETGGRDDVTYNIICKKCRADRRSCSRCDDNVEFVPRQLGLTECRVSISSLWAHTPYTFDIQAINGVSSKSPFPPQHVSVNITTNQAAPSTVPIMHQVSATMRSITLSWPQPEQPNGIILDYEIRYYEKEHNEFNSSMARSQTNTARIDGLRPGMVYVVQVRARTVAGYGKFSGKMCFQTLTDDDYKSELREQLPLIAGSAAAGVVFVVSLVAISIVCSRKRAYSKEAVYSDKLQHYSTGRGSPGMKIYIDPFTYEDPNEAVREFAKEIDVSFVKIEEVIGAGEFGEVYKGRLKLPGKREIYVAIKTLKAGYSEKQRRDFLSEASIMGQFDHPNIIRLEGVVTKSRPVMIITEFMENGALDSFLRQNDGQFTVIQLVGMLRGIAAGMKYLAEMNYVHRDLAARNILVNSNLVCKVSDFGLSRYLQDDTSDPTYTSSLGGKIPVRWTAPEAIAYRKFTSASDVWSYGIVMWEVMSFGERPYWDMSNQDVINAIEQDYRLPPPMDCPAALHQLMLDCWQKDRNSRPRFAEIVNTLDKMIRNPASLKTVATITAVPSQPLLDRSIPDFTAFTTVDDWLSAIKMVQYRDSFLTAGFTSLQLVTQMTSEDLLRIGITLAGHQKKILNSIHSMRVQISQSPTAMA
Enter the number alone.

Return reported phosphorylation enrichment. Input sequence: LLREWYVQDPF [SIX3_Y225_L226V_YF]
0.673

Return reported phosphorylation enrichment. Input sequence: LRSELYSLIAR [PHIP_Y16_F17S]
5.23

Return reported phosphorylation enrichment. Input sequence: VNYGAYINNFK [GLB1_Y488_D491N]
0.743

Return reported phosphorylation enrichment. Input sequence: LNEVGYDDIGG [VCP_Y203]
1.4

Return reported phosphorylation enrichment. Input sequence: TTTQAYRVNER [PRKN_Y391_D394N]
0.445

Return reported phosphorylation enrichment. Input sequence: TDLAYYLVRKG [ASL_Y376]
0.468

Return reported phosphorylation enrichment. Input sequence: IFGVSYDEYRY [CFTR_Y512]
0.557

Return reported phosphorylation enrichment. Input sequence: FPQARYHWLVL [APTX_Y214_K211Q_YF]
0.568

Return reported phosphorylation enrichment. Input sequence: EPFELYCEMGS [CBL_Y371_Q367P_YF]
2.64

Return reported phosphorylation enrichment. Input sequence: IFQASYFRRGD [LTK_Y676_R673Q_YF]
0.516

Return reported phosphorylation enrichment. Input sequence: MGHVNYGAFIN [GLB1_Y485_R482H_YF]
0.565

Return reported phosphorylation enrichment. Input sequence: SLNEGYAKDFD [FBP1_Y216_R218K]
0.508

Return reported phosphorylation enrichment. Input sequence: LADMNYVHCDL [EPHB2_Y742_R745C]
0.889

Return reported phosphorylation enrichment. Input sequence: YQKDVYNIPPS [NEDD9_Y177_D178N]
0.456

---

target: SHP2-C SH2; assay: SH2 binding enrichment of the phosphorylated peptide, bacterial display (enrichment ratio); higher = better substrate or ligand; peptides without Tyr show the background
PROPERTY: SH2 binding enrichment
Enter the number alone.

In the examples that follow, each entry is paired with its recorded SH2 binding enrichment.
ETDSEYVKLAK [C7orf57_Y70]
0.676
TTSQPYRCLCS [USH2A_Y534]
0.992
QDDTVYMGKVI [DCTN1_Y1244_T1249I]
0.427
IGCHAYGDQYR [IDH1_Y135_R132C]
0.59
VIKDKYPKARF [APTX_Y209_YF]
1.25
CFTGKYTLPPG [HSPB1_Y142_R140G]
0.377

Lab note: record SH2 binding enrichment of QTLTDYDTRFF [CSNK2A3_Y131_I133T_YF] tested on SHP2-C SH2.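 Also: peptide library displayed on the E. coli surface as eCPX fusions, selected cells deep-sequenced, score is each peptide's frequency after selection divided by its frequency in the input.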
0.852

---

Here the recorded phosphorylation enrichment is given for each entry.
test system: Fer (mouse); assay: phosphorylation enrichment, bacterial display (enrichment ratio); higher = better substrate or ligand; peptides without Tyr show the background
Enter the number alone.

In the examples that follow, each entry is paired with its recorded phosphorylation enrichment.
DQNVEYKGTVS [FHL1_Y117_W122S]
0.468
RSACTYLASHL [PLK3_Y615]
0.519
FSCLPCGRLAF [SLC52A2_Y305_Y305C_YF]
0.423
SVTCTYSPAHN [TP53_Y126_L130H]
0.799

Return reported phosphorylation enrichment. Input sequence: LLTALYFISWG [KCNH2_Y780_R784W]
0.782

Return reported phosphorylation enrichment. Input sequence: FEPWVYSFSYE [PRKDC_Y647]
1.35

Return reported phosphorylation enrichment. Input sequence: HVKHNYECLVY [XRCC5_Y416_I412V]
0.573

Return reported phosphorylation enrichment. Input sequence: VEDQFYRVDCF [FHL1_Y208_C209R_YF]
0.559

Return reported phosphorylation enrichment. Input sequence: WASQRYGRELR [BAD_Y110_A107S]
0.332

Return reported phosphorylation enrichment. Input sequence: LGQRIYQYIRS [DYRK1B_Y271_Q275R]
4.1

---

target: MERTK (UniProt Q12866); assay: phosphorylation enrichment, bacterial display (enrichment ratio); higher = better substrate or ligand; peptides without Tyr show the background
Sequence (Q12866 whole entry, looked up): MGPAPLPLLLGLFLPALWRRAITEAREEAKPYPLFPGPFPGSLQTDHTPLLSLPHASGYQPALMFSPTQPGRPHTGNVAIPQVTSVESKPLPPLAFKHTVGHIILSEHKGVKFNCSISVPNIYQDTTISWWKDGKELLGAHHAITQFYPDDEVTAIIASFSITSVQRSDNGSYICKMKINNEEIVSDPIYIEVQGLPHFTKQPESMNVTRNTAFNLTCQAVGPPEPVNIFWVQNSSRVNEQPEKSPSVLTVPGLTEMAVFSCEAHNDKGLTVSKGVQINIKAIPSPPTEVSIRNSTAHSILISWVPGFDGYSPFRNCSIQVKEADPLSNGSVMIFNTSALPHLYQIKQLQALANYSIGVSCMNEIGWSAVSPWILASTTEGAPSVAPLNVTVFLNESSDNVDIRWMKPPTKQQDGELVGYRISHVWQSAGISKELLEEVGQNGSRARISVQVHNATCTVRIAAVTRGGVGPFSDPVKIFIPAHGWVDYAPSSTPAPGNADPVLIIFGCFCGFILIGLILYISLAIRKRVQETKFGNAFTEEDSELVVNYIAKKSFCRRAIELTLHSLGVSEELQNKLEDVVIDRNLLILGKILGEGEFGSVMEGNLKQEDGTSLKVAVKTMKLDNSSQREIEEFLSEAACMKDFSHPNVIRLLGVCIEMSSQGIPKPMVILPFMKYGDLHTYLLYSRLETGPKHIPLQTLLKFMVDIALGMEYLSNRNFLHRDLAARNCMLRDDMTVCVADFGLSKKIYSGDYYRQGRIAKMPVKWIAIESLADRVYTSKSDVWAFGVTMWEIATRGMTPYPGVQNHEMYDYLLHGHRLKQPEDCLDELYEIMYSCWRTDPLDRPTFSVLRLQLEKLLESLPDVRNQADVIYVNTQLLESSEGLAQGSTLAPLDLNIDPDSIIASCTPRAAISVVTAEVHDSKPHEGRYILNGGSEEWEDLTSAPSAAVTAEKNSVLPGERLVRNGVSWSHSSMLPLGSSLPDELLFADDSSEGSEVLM
PROPERTY: phosphorylation enrichment

ELPEKYSQNIY [PKP2_Y626]
0.384

Lab note: record phosphorylation enrichment of LLQKTYNYNVL [SLC4A1_Y553_P548L] tested on MERTK (UniProt Q12866).
0.694

Lab note: record phosphorylation enrichment of ALPGEYIPTVF [RAC1_Y32_F28L] tested on MERTK (UniProt Q12866).
0.426

Lab note: record phosphorylation enrichment of DNEALYDICFR [TUBB2B_Y208] tested on MERTK (UniProt Q12866).
7.51

Lab note: record phosphorylation enrichment of IVRSLYKDLED [VHL_Y185_E186K] tested on MERTK (UniProt Q12866).
0.496

Lab note: record phosphorylation enrichment of GPTLSYGRDGR [MATR3_Y158] tested on MERTK (UniProt Q12866).
0.488

Attribution: the supplement of paper PMC10065799
